test: recombinant barcode read abundance after kanamycin selection (control-corrected) (log10(CPM+1)); higher = more efficient recombination; sequences stand for … in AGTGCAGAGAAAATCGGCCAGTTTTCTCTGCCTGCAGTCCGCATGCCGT…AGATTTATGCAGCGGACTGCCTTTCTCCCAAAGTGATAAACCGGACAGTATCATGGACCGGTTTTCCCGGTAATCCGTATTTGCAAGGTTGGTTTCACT; site = the 11-nt target;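 further: IS621 recombinase and bridge RNA in Escherichia coli cells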
Classification scheme (recombinant barcode read abundance (log10)): one = under 0.1, two = from 0.1 up to 0.7, three = 0.7 and over

Polymer Sequence	Category Label
AAGCCCTCTTGGGTTCTAACCTGTTGCTT (site AAGACCTCTAA)	two
GATACGGCTTGGGTTCTAACCTGTTGCCT (site GATACGTCTAG)	one
GTAAGTCCTTGGGTTCTAACCTGTTGCGA (site GTAAGTCCTTC)	three
TATACCACTTGGGTTCTAACCTGTTGCCT (site TATACCACTAG)	two
TGTCCACCTTGGGTTCTAACCTGTTGCCT (site GGTCCACCTAG)	two
AGCAATTCTTGGGTTCTAACCTGTTGCCT (site AGTAATTCTAG)	two
AAGTATCCTTGGGTTCTAACCTGTTGCGG (site AAGTATCCTCC)	three
GACTTTACTTGGGTTCTAACCTGTTGCCT (site GACGTTGCTAG)	one
TGGTGCGCTTGGGTTCTAACCTGTTGCCT (site TGGTCCGCTAG)	two
CAGAGAGCTTGGGTTCTAACCTGTTGCCT (site CAGAGAGCTAG)	three
CCTTGCCCTTGGGTTCTAACCTGTTGCCT (site CATTGCCCTAG)	one
ACTCGTTCTTGGGTTCTAACCTGTTGCTT (site GCTAGTTCTAA)	one
GGTTATCCTTGGGTTCTAACCTGTTGCGG (site TTACGCTCTTA)	one
TATATGACTTGGGTTCTAACCTGTTGCGG (site ATGCACGCTAG)	one
CACCCCTCTTGGGTTCTAACCTGTTGCCG (site ATGAGGACTAC)	one
GACTTACCTTGGGTTCTAACCTGTTGCAT (site GACTTGCCTAT)	two
GTGAACTCTTGGGTTCTAACCTGTTGCTG (site GTGAACTCTCA)	three
GCAGGGACTTGGGTTCTAACCTGTTGCAG (site GCAAGGACTCT)	three
GACCCACCTTGGGTTCTAACCTGTTGCCT (site GACCCACCTAG)	three
GGCACTTCTTGGGTTCTAACCTGTTGCCT (site GGCACTTCTAG)	two
TTGGGTGCTTGGGTTCTAACCTGTTGCCG (site TTGGGTGCTCG)	three
CTGATCCCTTGGGTTCTAACCTGTTGCCT (site CCGATCCCTAG)	two
CCAGGTACTTGGGTTCTAACCTGTTGCCT (site GCAGGTACTAG)	two
CTCTAGTCTTGGGTTCTAACCTGTTGCGT (site CTCTAGTCTAG)	two
AAGATGTCTTGGGTTCTAACCTGTTGCTG (site AAGATGTCTCA)	three
GAACCTACTTGGGTTCTAACCTGTTGCCG (site GAACCTACTCG)	two
TGCCTCTCTTGGGTTCTAACCTGTTGCCT (site TGCCTCTCTAG)	two
AGTCGGACTTGGGTTCTAACCTGTTGCAC (site CACGATCCTAA)	one
AAGCCAACTTGGGTTCTAACCTGTTGCCT (site AAGCCAACTAG)	three
TTGACACCTTGGGTTCTAACCTGTTGCCT (site TTGACACCTAG)	three
TTCTAGACTTGGGTTCTAACCTGTTGCCA (site TTCTAGACTTG)	two
TTCTTAACTTGGGTTCTAACCTGTTGCGG (site TTCTTAACTCC)	two
CTACGTCCTTGGGTTCTAACCTGTTGCTA (site CTACGTCCTTA)	three
ACATAGTCTTGGGTTCTAACCTGTTGCTG (site ACTTAGTCTTA)	one
ATTGGTCCTTGGGTTCTAACCTGTTGCCT (site ATGGGTCCTAG)	two
GTTGGGGCTTGGGTTCTAACCTGTTGCCT (site GTTGGGGCTAG)	two
GGCGTGCCTTGGGTTCTAACCTGTTGCGT (site AAGAACTCTTG)	one
GTAACCTCTTGGGTTCTAACCTGTTGCCG (site GTAACCTCTAG)	three
CTCTCGTCTTGGGTTCTAACCTGTTGCAT (site CTCTCGTCTAT)	three
GCGTCGTCTTGGGTTCTAACCTGTTGCCT (site GCGTCGTCTAG)	one
